Catalogue of compounds with associated viscosity
# CONDITION NOTES: 333.15 K; 102 kPa; Liquid; Concentric cylinders viscometry
Entry rule: numbers only, all in mPa·s.

Before answering, review these 3 worked examples.
CCC1CCCCC1 = 0.504
CCCCCCCCCCCC = 0.795
CCCCCCCCCCCCCCCC = 1.56

Here's the next entry for you.
Qu. Entry CC1CCCCC1 : reported viscosity = ?
Ans. 0.44

====

# CONDITION NOTES: 293.15 K; 102 kPa; Liquid; Concentric cylinders viscometry
± gives the expanded uncertainty stated by the source.
# maps each entry to its viscosity
Answer with the figure and its unit, nothing else.

CCCCCCCCCCCC [dodecane] = 1.49 ± 0.01 mPa·s

Qu. # input compound: CCCCCCCCCCCCCCCC [hexadecane] ; wanted: its viscosity
Ans. 3.47 ± 0.02 mPa·s

Qu. Further, for CC1CCCCC1 [methylcyclohexane] ?
Ans. 0.74 ± 0.011 mPa·s

Qu. What do we get for CCC1CCCCC1 [ethylcyclohexane] ?
Ans. 0.858 ± 0.012 mPa·s

====

# CONDITION NOTES: 313.15 K; 102 kPa; Liquid; Vibrating tube method
List of mass density values.
Return type: number; implicit unit kg/m3.

The cases that follow already have their mass density on record.
CCC1CCCCC1 = 771.79
CCCCCCCCCCCCCCCC = 759.51
CC1CCCCC1 = 751.92

Now examine the next entry.
Qu. Which mass density value is on record for CCCCCCCCCCCC ?
Ans. 734.87

====

Entries and their mass density values follow.
# CONDITION NOTES: 293.15 K; 102 kPa; Liquid; Vibrating tube method
Give just the numeric value; kg/m3 need not be written.

Qu. Name the reported mass density value associated with the compound CCCCCCCCCCCCCCCC [hexadecane]
Ans. 773.37

Qu. Likewise for CCCCCCCCCCCC [dodecane] ?
Ans. 748.73

Qu. Please answer likewise for CCC1CCCCC1 [ethylcyclohexane]
Ans. 787.98

Qu. Next compound up: CC1CCCCC1 [methylcyclohexane]
Ans. 769.3

====

Listing: speed of sound of selected compounds
# CONDITION NOTES: 303.15 K; 102 kPa; Liquid; Single path-length method
Give just the numeric value; m/s need not be written.

Consider the reported speed of sound for these compounds:
CCC1CCCCC1 = 1249.9
CCCCCCCCCCCCCCCC = 1319.7
CC1CCCCC1 = 1192.3

Here is the next item to consider.
Qu. Report speed of sound for CCCCCCCCCCCC please.
Ans. 1259

====

# Lookup of reported speed of sound keyed by entry
# CONDITION NOTES: 323.15 K; 102 kPa; Liquid; Single path-length method
Answer in m/s, number only, no unit symbol.

CCC1CCCCC1 [ethylcyclohexane] = 1166.9

Qu. Entry CC1CCCCC1 [methylcyclohexane] has what speed of sound?
Ans. 1106.9

Qu. Try CCCCCCCCCCCC [dodecane] next.
Ans. 1183.9

Qu. Here is the next molecule: CCCCCCCCCCCCCCCC [hexadecane]
Ans. 1247.1

====

# CONDITION NOTES: 333.15 K; 102 kPa; Liquid; Single path-length method
QUANTITY KIND: speed of sound (m/s)
The response must be a number in m/s with no trailing unit.

// known answers, use as guide
CCCCCCCCCCCCCCCC = 1212.2
CCC1CCCCC1 = 1126.9
CCCCCCCCCCCC = 1147.6

Now, please, on to the next compound.
Qu. Could you tell me which speed of sound is on file for CC1CCCCC1 ?
Ans. 1065.7
